These data points were gathered from patent US20220195012A1.

- SYSTEM_TESTED: AP C3-convertase (C3bBb) (UniProt P01024)
- Sequence (P01024 23-667 limits assumed, chain 1 of 3): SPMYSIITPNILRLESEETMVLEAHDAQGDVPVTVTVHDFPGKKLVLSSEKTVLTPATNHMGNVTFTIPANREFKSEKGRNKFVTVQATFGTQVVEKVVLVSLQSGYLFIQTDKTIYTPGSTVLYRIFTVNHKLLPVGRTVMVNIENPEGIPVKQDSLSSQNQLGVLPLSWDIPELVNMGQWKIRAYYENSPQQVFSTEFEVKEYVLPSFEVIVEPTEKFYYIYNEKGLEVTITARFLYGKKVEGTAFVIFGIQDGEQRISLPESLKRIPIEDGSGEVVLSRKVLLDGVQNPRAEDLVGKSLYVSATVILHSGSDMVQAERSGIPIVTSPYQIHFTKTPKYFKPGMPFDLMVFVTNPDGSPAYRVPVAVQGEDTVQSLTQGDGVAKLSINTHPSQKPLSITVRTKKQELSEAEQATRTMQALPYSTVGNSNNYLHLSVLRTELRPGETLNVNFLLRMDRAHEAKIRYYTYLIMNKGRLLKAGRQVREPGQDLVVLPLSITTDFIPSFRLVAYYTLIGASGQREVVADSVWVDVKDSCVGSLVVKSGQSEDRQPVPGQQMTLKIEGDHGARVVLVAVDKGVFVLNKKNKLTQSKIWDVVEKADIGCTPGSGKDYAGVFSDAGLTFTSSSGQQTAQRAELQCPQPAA
- Sequence (P01024 749-1663 limits assumed, chain 2 of 3): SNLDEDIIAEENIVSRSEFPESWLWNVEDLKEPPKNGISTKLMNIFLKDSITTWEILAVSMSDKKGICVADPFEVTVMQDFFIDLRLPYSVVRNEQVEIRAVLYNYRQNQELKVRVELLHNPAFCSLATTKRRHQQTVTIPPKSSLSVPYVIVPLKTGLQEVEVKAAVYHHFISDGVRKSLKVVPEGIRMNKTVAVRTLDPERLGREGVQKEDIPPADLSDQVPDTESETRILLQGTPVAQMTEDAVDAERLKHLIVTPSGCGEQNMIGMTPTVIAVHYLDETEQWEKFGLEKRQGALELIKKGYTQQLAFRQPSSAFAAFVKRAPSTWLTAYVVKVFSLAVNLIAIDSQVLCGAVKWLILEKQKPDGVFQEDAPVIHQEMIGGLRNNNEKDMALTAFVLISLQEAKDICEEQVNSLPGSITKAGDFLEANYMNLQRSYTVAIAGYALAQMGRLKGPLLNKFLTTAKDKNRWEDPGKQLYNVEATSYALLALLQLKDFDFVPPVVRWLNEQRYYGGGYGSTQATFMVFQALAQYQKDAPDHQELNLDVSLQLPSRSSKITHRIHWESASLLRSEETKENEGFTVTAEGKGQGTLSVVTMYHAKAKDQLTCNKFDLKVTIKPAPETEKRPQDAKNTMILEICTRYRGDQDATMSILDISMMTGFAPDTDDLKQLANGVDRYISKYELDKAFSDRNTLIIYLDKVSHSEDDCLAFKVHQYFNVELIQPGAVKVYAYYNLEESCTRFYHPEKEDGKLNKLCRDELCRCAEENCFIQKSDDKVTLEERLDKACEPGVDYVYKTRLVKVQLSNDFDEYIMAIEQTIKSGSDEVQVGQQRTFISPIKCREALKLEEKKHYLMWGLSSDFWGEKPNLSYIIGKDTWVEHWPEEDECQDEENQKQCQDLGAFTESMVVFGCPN
- Sequence (P00751 260-764 limits assumed, chain 3 of 3, further chain): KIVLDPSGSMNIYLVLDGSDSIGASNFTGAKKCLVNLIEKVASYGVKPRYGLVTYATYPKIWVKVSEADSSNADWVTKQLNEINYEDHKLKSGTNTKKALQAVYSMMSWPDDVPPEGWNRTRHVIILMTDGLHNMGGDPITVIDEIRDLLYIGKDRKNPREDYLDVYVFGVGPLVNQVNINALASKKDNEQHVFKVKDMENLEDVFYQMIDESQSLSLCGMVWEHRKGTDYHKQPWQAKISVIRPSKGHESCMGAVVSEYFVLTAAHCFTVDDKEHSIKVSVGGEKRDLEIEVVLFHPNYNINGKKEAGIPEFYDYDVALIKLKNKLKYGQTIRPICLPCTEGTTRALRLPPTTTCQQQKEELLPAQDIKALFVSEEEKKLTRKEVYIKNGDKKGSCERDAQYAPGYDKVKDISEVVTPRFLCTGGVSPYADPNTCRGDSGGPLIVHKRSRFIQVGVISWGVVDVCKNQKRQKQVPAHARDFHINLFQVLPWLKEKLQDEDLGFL
- TEST_SUMMARY: cell-based or functional assay
# AP-DAA IC50 per entry
All answers are understood in nM, so give the number only.

Consider the reported AP-DAA IC50 for these binders:
BINDER	UNIT_TAG	AP-DAA IC50
D2D3M3M4 (Multi-5) or DCP (decay-cofactor protein) (protein) CEVPTRLNSASLKQPYITQNYFPVGTVVEYECRPGYRREPSLSPKLTCLQNLKWSTAVEFCKKKSCPNPGEIRNGQIDVPGGILFGATISFSCNTGYKLIGSTSSFCLISGSSVQWSDKLPICEKVLCTPPPKIKNGKHTFSEVEVFEYLDAVTYSCDPAPGPDPFSLIGESTIYCGDNSVWSRAAPECKVVKCRFPVVENGKQISGFGKKFYYKATVMFECDKGFYLDGSDTIVCDSNSTWDPPVPKCLKVL	nM	2.4
D2D3M3M4 (T192E) (protein) CEVPTRLNSASLKQPYITQNYFPVGTVVEYECRPGYRREPSLSPKLTCLQNLKWSTAVEFCKKKSCPNPGEIRNGQIDVPGGILFGATISFSCNEGYKLFGSTSSFCLISGSSVQWSDPLPECREIYCTPPPKIKNGKHTFSEVEVFEYLDAVTYSCDPAPGPDPFSLIGESTIYCGDNSVWSRAAPECKVVKCRFPVVENGKQISGFGKKFYYKATVMFECDKGFYLDGSDTIVCDSNSTWDPPVPKCLKVL	nM	2.5
D2D3M3M4 (Multi-1) (protein) CEVPTRLNSASLKQPYITQNYFPVGTVVEYECRPGYRREPSLSPKLTCLQNLKWSTAVEFCKKKSCPNPGEIRNGQIDVPGGILFGATISFSCNTGYKLFGSTSSFCLISGSSVQWSDPLPICEKVLCTPPPKIKNGKHTFSEVEVFEYLDAVTYSCDPAPGPDPFSLIGESTIYCGDNSVWSRAAPECKVVKCRFPVVENGKQISGFGKKFYYKATVMFECDKGFYLDGSDTIVCDSNSTWDPPVPKCLKVL	nM	1.9

# next binder below
Q: Consider the binder D2D3M3M4 (T200Y) (protein) CEVPTRLNSASLKQPYITQNYFPVGTVVEYECRPGYRREPSLSPKLTCLQNLKWSTAVEFCKKKSCPNPGEIRNGQIDVPGGILFGATISFSCNTGYKLFGSYSSFCLISGSSVQWSDPLPECREIYCTPPPKIKNGKHTFSEVEVFEYLDAVTYSCDPAPGPDPFSLIGESTIYCGDNSVWSRAAPECKVVKCRFPVVENGKQISGFGKKFYYKATVMFECDKGFYLDGSDTIVCDSNSTWDPPVPKCLKVL and give its measured AP-DAA IC50.
A: 3.7
